Target: T1, human 5T4 (trophoblast glycoprotein), endogenous on the cell surface (human, UniProt Q13641 32-420)
T1 construct: also called TPBG; 5T4 oncofetal antigen
T1 sequence: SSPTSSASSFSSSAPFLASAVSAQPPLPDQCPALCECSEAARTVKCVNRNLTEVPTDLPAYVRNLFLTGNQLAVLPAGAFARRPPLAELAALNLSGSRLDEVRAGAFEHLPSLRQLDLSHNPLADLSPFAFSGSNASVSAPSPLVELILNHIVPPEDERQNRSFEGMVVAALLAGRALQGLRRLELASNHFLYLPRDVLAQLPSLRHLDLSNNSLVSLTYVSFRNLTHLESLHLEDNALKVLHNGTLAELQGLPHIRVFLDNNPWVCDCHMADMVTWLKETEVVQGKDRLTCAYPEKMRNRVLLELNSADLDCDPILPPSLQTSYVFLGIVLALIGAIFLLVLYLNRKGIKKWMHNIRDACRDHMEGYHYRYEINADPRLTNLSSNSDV
Assay: flow cytometry (FL4H median), sdAb-Fc titrated on 5T4-positive T47D cells

[
  {
    "binder": "12E9 sdAb-Fc (Fc fusion, not shown: a dimerising Fc or GST, Camelid derived sdAb tested as sdAb-Fc; also called L12E9; 12E9-Fc) QVQLVQSGGGLVQAGGSLRLSCAASRRPFSSKTMAWFRQTPGKEREFVAAVRWIGGATRYTDSVKGRFSISKDNAINTVYLQMNSLKSEDTAVYYCAAGQAWGTKFTDYSDWGQGTQVTVKP",
    "EC50 (read off the curve)": "~0.2 nM"
  },
  {
    "binder": "hz12E9v2 sdAb-Fc (Fc fusion, Humanized variant of 12E9, linked to a human Fc; not shown: human Fc) EVQLVESGGGEVQPGGSLRLSCAASRRPFSSKTMAWFRQAPGKEREFVAAVRWIGGATRYAESVKGRFTISRDNAKNTLYLQMSSLRAEDTAVYYCAAGQAWGTKFTDYSDWGQGTLVTVKP",
    "EC50 (read off the curve)": "~0.2 nM"
  },
  {
    "binder": "hz12E9v4 sdAb-Fc (Fc fusion, Humanized variant of 12E9, linked to a human Fc; not shown: human Fc) EVQLVESGGGEVQPGGSLRLSCAASRRPFSSKTMAWFRQAPGKEREFVAAVRWIGGATRYTESVKGRFTISRDNAKNTVYLQMSSLRAEDTAVYYCAAGQAWGTKFTDYSDWGQGTLVTVKP",
    "EC50 (read off the curve)": "~0.2 nM"
  },
  {
    "binder": "hz16G10v2 sdAb-Fc (Fc fusion, Humanized variant of 16G10, linked to a human Fc; not shown: human Fc) EVQLVESGGGEVQPGGSLRLSCAASGRPFSSSAMGWFRQAPGKERETVAAVSRNGGSSYYAESVKGRFTISRDNAKNTLYLQMSSLRAEDTAVYYCAARSAAYSRSSETYTEKHDYTYWGQGTLVTVKP",
    "EC50 (read off the curve)": "~2 nM"
  },
  {
    "binder": "16G10 sdAb-Fc (Fc fusion, not shown: a dimerising Fc or GST, Camelid derived sdAb tested as sdAb-Fc; also called L16G10) QVQLLQSGGGLVQAGGSLILSCAVSGRPFSSSAMGWFRQAPGKERETVAAVSRNGGSSYYADFVKGRFTISRDNDKNTVYLQMNSLKPEDTAVYYCAARSAAYSRSSETYTEKHDYTYWGQGTQVTVKP",
    "EC50 (read off the curve)": "~0.9 nM"
  },
  {
    "binder": "hz16G10v5 sdAb-Fc (Fc fusion, Humanized variant of 16G10, linked to a human Fc; not shown: human Fc) EVQLVESGGGEVQPGGSLRLSCAASGRPFSSSAMGWFRQAPGKERETVAAVSRGGGSSYYAESVKGRFTISRDNAKNTVYLQMSSLRAEDTAVYYCAARSAAYSRSSETYTEKHDYTYWGQGTLVTVKP",
    "EC50 (read off the curve)": "~5 nM"
  },
  {
    "binder": "hz16G10v1 sdAb-Fc (Fc fusion, Humanized variant of 16G10, linked to a human Fc; not shown: human Fc) EVQLVESGGGEVQPGGSLRLSCAASGRPFSSSAMGWFRQAPGKGRETVSAVSRNGGSSYYAESVKGRFTISRDNAKNTLYLQMSSLRAEDTAVYYCAARSAAYSRSSETYTEKHDYTYWGQGTLVTVKP",
    "EC50 (read off the curve)": "~2 nM"
  },
  {
    "binder": "hz16G10v3 sdAb-Fc (Fc fusion, Humanized variant of 16G10, linked to a human Fc; not shown: human Fc) EVQLVESGGGEVQPGGSLRLSCAASGRPFSSSAMGWFRQAPGKERETVAAVSRNGGSSYYAESVKGRFTISRDNAKNTVYLQMSSLRAEDTAVYYCAARSAAYSRSSETYTEKHDYTYWGQGTLVTVKP",
    "EC50 (read off the curve)": "~2 nM"
  }
]
